- tested on: Cytochrome P450 1A2 (Homo sapiens) (UniProt P05177)
- Sequence (P05177 whole entry, looked up): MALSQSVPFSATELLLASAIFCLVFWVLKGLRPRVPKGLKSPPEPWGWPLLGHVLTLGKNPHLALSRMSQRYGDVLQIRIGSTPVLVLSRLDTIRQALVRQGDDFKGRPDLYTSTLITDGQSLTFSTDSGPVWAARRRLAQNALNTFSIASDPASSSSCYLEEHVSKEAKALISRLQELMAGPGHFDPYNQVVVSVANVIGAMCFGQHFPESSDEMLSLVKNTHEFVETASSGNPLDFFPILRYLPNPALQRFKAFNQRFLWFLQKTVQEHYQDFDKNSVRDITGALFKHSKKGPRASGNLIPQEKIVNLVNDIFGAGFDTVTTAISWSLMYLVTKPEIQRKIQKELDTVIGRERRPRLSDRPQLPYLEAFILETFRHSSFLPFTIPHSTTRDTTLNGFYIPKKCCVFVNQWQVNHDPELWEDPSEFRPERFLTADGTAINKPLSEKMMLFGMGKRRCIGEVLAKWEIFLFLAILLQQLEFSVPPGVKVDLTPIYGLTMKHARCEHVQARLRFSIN
- assay info: Cytochrome panel assay with activity outcomes
- condition summary: recombinant CYP, pro-luciferin dealkylation, luminescence, p450-cyp1a2; series mostly up to 57.1 µM
The whole screen tested about 16,000 compounds, of which about 5,700 (36%) were called active. Inconclusive results (about 24%) are left out. The list shows a part of the results.
assay metric: AC50

Cn1c(Oc2ccccc2)c(C=O)c2ccccc21 :: 7080 nM (active)
O=S(=O)(c1ccccc1)c1cnn2c(C(F)(F)F)cc(-c3ccc(F)cc3)nc12 :: 794 nM (active)
CCc1ccc(C(=O)CN(C#N)c2nc(C)cc(C)n2)cc1 :: 15800 nM (active)
O=C1CCCN1CC(O)CS(=O)(=O)c1ccccc1 (configuration not stated) :: inactive
O=c1c(O)c(-c2cc(O)c(O)c(O)c2)oc2cc(O)cc(O)c12 :: 5010 nM (active)
CNc1nc(-c2cccnc2)nc2ccccc12 :: 100 nM (active)
CCc1ccc(C(CC(=O)c2ccc(Cl)cc2)C(=O)O)cc1 (configuration not stated) :: inactive
O=S(=O)(CC(O)COc1ccccc1Cl)c1ccccc1 (configuration not stated) :: 22400 nM (active)
CCN(CC)CC#CCC(C)(c1ccccc1)c1ccccc1 :: inactive
c1ccc(Nc2nc(-c3cccnc3)nc3ccccc23)cc1 :: 398 nM (active)
CCc1ccc(-c2ccc(C(=O)C(F)(F)F)[nH]2)cc1 :: 1120 nM (active)
CCc1sc(-c2c(C#N)c(N)nc3c2CCCCCC3)cc1[N+](=O)[O-] :: 2000 nM (active)
